# SYSTEM: T1, IL-9-His recombinant protein (UniProt P15248 19-144)
# T1 construct: range 19-144; used as coating antigen in the ELISAs; also called IL9 (19-144)-His; not shown: His tag, C-terminal by the vector name
# T1 sequence (P15248 19-144 limits assumed, form in doubt): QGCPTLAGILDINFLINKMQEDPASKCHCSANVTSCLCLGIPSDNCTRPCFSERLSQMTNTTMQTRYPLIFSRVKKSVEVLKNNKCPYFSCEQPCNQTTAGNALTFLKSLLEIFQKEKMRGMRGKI
# EXPERIMENTAL PROTOCOL: ELISA on coated IL-9-His, OD450; unit taken from the x axis, the table prints none
QUANTITY MEASURED: EC50
Answer with the number, then the unit.

Solved cases below.
[
  {
    "BINDER": "humanized antibody VH1-VL2 (hu.CA1) (antibody, V domains shown, IgG1 / kappa by the vectors pcDNA3.4-IgG1 and pcDNA3.4-IgKc; also called humanized VH1-VL2 antibody) VH: EVQLKQSGAEVMKPGASVKVSCKATGYTFTGYWIEWVRLAPGHGLEWMGEILPGSGSTNYNQKFQGRVTFTADTSINTAYMELSRLRSDDTAIYYCARRTYYYGIPEDYWGQGTLVTVSS VL: DIVMTQSQKFFSTSTGDRVTITCRASQNVGTNVAWHQQKPGQSPKPLIYSASYRYSGVPSRFTGSGSGTDFTLTISNLQSEDFAEYFCQQYNSYPLTFGAGTKLEIK",
    "EC50": "0.035 mg/L"
  },
  {
    "BINDER": "humanized antibody VH2-VL4 (hu.CA3) (antibody, V domains shown, IgG1 / kappa by the vectors pcDNA3.4-IgG1 and pcDNA3.4-IgKc) VH: EVQLVQSGAEVMKPGASVKVSCKATGYTFTGYWIEWVRLAPGQGLEWMGEILPGSGSTNYNQKFQGRVTFTADTSTNTAYMELSSLRSEDTAIYYCARRTYYYGIPEDYWGQGTLVTVSS VL: DIVMTQSPKFLSASVGDRVTITCKASQNVGTNVAWHQQKPGQSPKPLIYSASYRYSGVPSRFTGSGSGTDFTLTISNLQPEDFAEYFCQQYNSYPLTFGAGTKLEIK",
    "EC50": "0.0329 mg/L"
  }
]

Please turn your attention to the following entry.
Enquiry: Entry under review: humanized antibody VH3-VL4 (hu.CA4) (antibody, V domains shown, IgG1 / kappa by the vectors pcDNA3.4-IgG1 and pcDNA3.4-IgKc) VH: EVQLVQSGAEVMKPGASVKVSCKATGYTFTGYWIEWVRLAPGQGLEWMGEILPGSGSTNYNQKLQGRVTFTADTSTNTAYMELRSLRSDDTAIYYCARRTYYYGIPEDYWGQGTLVTVSS VL: DIVMTQSPKFLSASVGDRVTITCKASQNVGTNVAWHQQKPGQSPKPLIYSASYRYSGVPSRFTGSGSGTDFTLTISNLQPEDFAEYFCQQYNSYPLTFGAGTKLEIK . Reported EC50?
Return: 0.0323 mg/L
